Source: PubChem BioAssay (NCI)

Test system: PC-3 prostate
Assay: NCI tumour cell line growth inhibition, 48 h
TEST READOUT: TGI

Check out these entries, answers already filled in.
[[record]]
molecule = "C[C@@H](NC(=O)OC1C=CC2(CC1)C(=O)N(C)c1ccccc12)c1cccc2ccccc12 (stereo partly drawn)"
test_readout = "TGI"
result = "> 25 µM"

[[record]]
molecule = "O=C1NC(=O)C(C(c2ccc(Cl)cc2)C2C(=O)NC(=O)NC2=O)C(=O)N1"
test_readout = "TGI"
result = "> 100 µM"


query: Which TGI reading was recorded for the molecule CSc1nc2c(N)ncnc2n1C ?
result: > 100 µM

====

System: TK-10 renal
Assay: NCI tumour cell line growth inhibition, 48 h
TEST READOUT: TGI (µM)
Numbers only, in µM.

Check out these entries, answers already filled in.
[[record]]
molecule = "C=C(C)[C@@H]1CCC2=C[C@@H](OC2=O)[C@@H](C(=C)C)C(=O)/C=C(/C)C(=O)C1"
recorded_number = 90.9

[[record]]
molecule = "CC1OC(OC2C(O)COC(OC3C(C)OC(OC4C(OC(=O)[C@]56CCC(C)(C)C[C@@H]5C5=CCC7[C@@]8(C)C[C@H](O)[C@H](OC9OC(CO)C(O)C(OC%10OC(CO)C(O)C(O)C%10O)C9O)[C@@](C)(CO)[C@@H]8CC[C@@]7(C)[C@]5(C)CC6)OCC(O)C4O)C(O)C3OC3OCC(O)C(O)C3O)C2O)C(O)C(O)C1O (some centres not stated)"
recorded_number = 22.7


query: Param readout= TGI; system= TK-10 renal; entry= Oc1cc(O)c2c(=S)cc(-c3ccc(Cl)cc3)oc2c1 ; returns value.
result: 19.1

====

System: BT-549 breast
Experiment: NCI tumour cell line growth inhibition, 48 h
TEST READOUT: TGI (µM)
Numbers only, in µM.

[[record]]
substance_smiles = "Oc1cc(O)c2c(=S)cc(-c3ccc(Cl)cc3)oc2c1"
recorded_number = 12.6


query: Param readout= TGI; system= BT-549 breast; entry= CN(C)CCNC(=O)c1cccc2nc3cccc(F)c3nc12 ; returns value.
result: 11.4

====

For each record, write down the corresponding TGI.
Test system: HCT-116 colon
Assay: NCI tumour cell line growth inhibition, 48 h

[[record]]
compound = "C=C1Oc2nc3ccccc3c(=O)n2C1(C)C"
result = "> 100 µM"


For the 3 compounds below, give their TGI values.
1. O=C(CCCc1ccccn1)c1ccccc1
2. COC(=O)C1C2C=CC(C2)N1S(=O)(=O)c1ccccc1 (configuration not stated)
3. NC(=S)N1N=C2c3ccccc3CC[C@H]2[C@@H]1c1cccs1

result:
1: > 100 µM; 2: > 100 µM; 3: > 100 µM

For the 3 compounds below, give their TGI values.
1. N#Cc1c(-c2ccccc2)cc(-c2ccccc2)n(CCCCC(=O)NO)c1=O
2. C=C(CS(=O)(=O)c1ccccc1)[P+](c1ccccc1)(c1ccccc1)c1ccccc1
3. CCCCNC(=O)Nc1c(C(N)=O)c2n(c1C(=O)OCC)CCCCC2

result:
["10.1 µM", "25.2 µM", "> 100 µM"]

====

System: SK-MEL-2 melanoma
Assay: NCI tumour cell line growth inhibition, 48 h
For each record, write down the corresponding TGI.

For the 4 molecules below, give their TGI values.
1. CN(C)C=Nc1cccc2cnccc12
2. Cc1cc2c(cc1C)[n+](=O)c(C(=O)N1CCN(c3ccc([N+](=O)[O-])cc3)CC1)c(C)n2[O-]
3. CC[O-].Cc1ccc2cccc([O-])c2n1.Cc1ccc2cccc([O-])c2n1.Cc1ccc2cccc([O-])c2n1.[Ti+4]
4. COc1cc(C(C)c2cc3c(cc2OCCCCOc2cc4c(cc2C(C)c2cc(OC)c(OC)c(OC)c2)OCO4)OCO3)cc(OC)c1OC (configuration not stated)

result:
["> 100 µM", "> 100 µM", "> 57.5 µM", "> 100 µM"]

For the 3 molecules below, give their TGI values.
1. COC(=O)/C=C1/N=C(N(C)/N=C/c2ccccc2)NC1=O
2. CN1C2C=C(c3ccccc3)CC1CC2 (configuration not stated)
3. NCC(NC(=O)OCc1ccccc1)C(=O)O (configuration not stated)

result:
1. > 100 µM
2. > 100 µM
3. > 50 µM

For the 2 molecules below, give their TGI values.
1. CSc1nc2c(N)ncnc2n1C
2. CC(C)c1cccc(C(C)C)c1NC(=O)C(=O)C(C(=O)c1ccc2ccccc2c1)C1OC(=O)c2ccccc21 (configuration not stated)

result:
["> 100 µM", "> 100 µM"]

====

Test system: RXF 393 renal
Experiment: NCI tumour cell line growth inhibition, 48 h
TEST READOUT: TGI

[[record]]
molecule = "CC1OC(OC2CC(O)C3(CO)C4C(O)CC5(C)C(C6=CC(=O)OC6)CCC5(O)C4CCC3(O)C2)C(O)C(O)C1O (stereo not given)"
test_readout = "TGI"
result = "< 0.0202 µM"

[[record]]
molecule = "C[C@H]1CC(=O)C2=CCCC3(SCCCS3)[C@@H]2[C@H]1CO"
test_readout = "TGI"
result = "> 100 µM"

[[record]]
molecule = "COC(=O)C1C2C=CC(C2)N1S(=O)(=O)c1ccccc1 (stereo not given)"
test_readout = "TGI"
result = "> 100 µM"

[[record]]
molecule = "O=C(O)CCCCn1cnc2c(=S)nc[nH]c21"
test_readout = "TGI"
result = "> 100 µM"


query: Which TGI reading was recorded for the molecule COc1ccc([N-]/C(=N\n2c(=O)c(C)nn(C)c2=S)N(c2ccc(OC)cc2)c2nn3c(=O)c(C)n[n+](C)c3s2)cc1 ?
result: > 100 µM

====

System: HCT-15 colon
Assay: NCI tumour cell line growth inhibition, 48 h
Where a SMILES comes first, the peptide text is derived from it. [ ]: non-standard residue; d: D form. The star is where a group is joined. ξ: configuration not given here. NMeF = CN[C@@H](Cc1ccccc1)C(=O)O; ξNMeV = CNC(C(=O)O)C(C)C; Boc = CC(C)(C)OC(=O)*; OBn = c1ccc(CO*)cc1
TEST READOUT: TGI

Check out these entries, answers already filled in.
[[record]]
compound = "Clc1ccc(-c2nn3ncccc3c2-c2ccnc(Nc3ccccc3)n2)cc1"
test_readout = "TGI"
result = "> 25 µM"

[[record]]
compound = "C[C@@H](NC(=O)OC1C=CC2(CC1)C(=O)N(C)c1ccccc12)c1cccc2ccccc12 (stereo partly drawn)"
test_readout = "TGI"
result = "> 25 µM"

[[record]]
compound = "CCCCN(CCCC)CCCN=c1nc2c(c(N)n1-c1ccccc1)c(=S)n(-c1ccccc1)c(=S)n2-c1ccccc1"
test_readout = "TGI"
result = "1.14 µM"

[[record]]
compound = "CCCC(=O)OC[n+]1cccc(-c2c(COC(=O)NC(C)C)c(COC(=O)NC(C)C)c3n2CCC3)c1"
test_readout = "TGI"
result = "> 100 µM"

[[record]]
compound = "CC1(C)C2CCC3(OCCO3)C1C1OC12 (stereo not drawn)"
test_readout = "TGI"
result = "> 100 µM"

[[record]]
compound = "CN(C)c1ccc(/C=C(\\NC(=O)c2ccccc2)C(=O)Nc2ccccc2C(=O)O)cc1"
test_readout = "TGI"
result = "> 100 µM"

[[record]]
compound = "CC(=O)OC[C@]12CC[C@@H]([C@@H](C)C(N)=O)[C@@H]1[C@H]1CC[C@@H]3[C@@]4(C)CC[C@H](OC(C)=O)C(C)(C)[C@@H]4CC[C@@]3(C)[C@]1(C)CC2"
test_readout = "TGI"
result = "15.3 µM"

[[record]]
compound = "CNC(C)C(=O)N[C@H](C(=O)N1CCC[C@@H]1CN(CCc1ccccc1)C(=O)C(F)(F)F)[C@H](C)OCC#CC#CCO[C@H](C)[C@H](NC(=O)[C@H](C)NC)C(=O)N1CCC[C@H]1CN(CCc1ccccc1)C(=O)C(F)(F)F (stereo partly drawn)"
test_readout = "TGI"
result = "3.75 µM"

[[record]]
compound = "CC(C)OP(=O)(OC(C)C)/C(=N/N)NNc1ccc([N+](=O)[O-])cc1"
test_readout = "TGI"
result = "> 100 µM"

[[record]]
compound = "COc1ccc2c(=O)c3cc([N+](=O)[O-])ccc3n(C)c2c1"
test_readout = "TGI"
result = "> 100 µM"


For the 7 compounds below, give their TGI values.
1. CCOP(=O)(OCC)C(Cc1ccc(OC)c(OC)c1)N=C(c1ccccc1)c1ccccc1 (stereo not drawn)
2. COc1c2c(cc3c(CCc4ccccc4)cc(=O)oc13)CCC(C)(C)O2
3. O=S1(=O)CS(=O)(=O)OCCCO1
4. CC(=O)NCCc1c[nH]c2ccc(Cl)cc12
5. COP1(=O)NCc2ncccc2O1 (stereo not drawn)
6. CCCN(CCCCN1C(=O)c2ccccc2C1=O)CC1COc2ccccc2O1 (stereo not drawn)
7. Cc1cccc2c(N)c3cccc(C(=O)NCCN(C)C)c3nc12

result:
1. > 100 µM
2. > 100 µM
3. > 100 µM
4. > 100 µM
5. > 100 µM
6. > 100 µM
7. 4.29 µM

For the 6 compounds below, give their TGI values.
1. CC[C@@H](C(=O)[C@@H](C)[C@@H](O)[C@H](C)CCc1ccc(C)c(O)c1C(=O)O)[C@H]1O[C@](CC)([C@H]2CC[C@](O)(CC)[C@H](C)O2)C[C@@H]1C
2. Cc1ccc2[nH]c3[nH]c(=O)[nH]c(=O)c3c2c1
3. N#CCC(=O)N/N=C1\C(=O)N(c2ccc(Cl)cc2)C(=O)C(=O)C1c1nc2ccccc2o1 (stereo not drawn)
4. [C-]#[O+].[Cl][Sn]([Cl])[Cl].[Cl][Sn]([Cl])[Cl].[Pt].c1ccncc1
5. CC(C)C(C(=O)N1CCC[C@@H]1C(=O)OCc1ccccc1)N(C)C(=O)C(C(C)C)N(C)C(=O)[C@H](Cc1ccccc1)N(C)C(=O)[C@H](NC(=O)OC(C)(C)C)C(C)C (stereo partly drawn) (Boc-[dV][NMeF][ξNMeV][ξNMeV][dP]-OBn)
6. CCOC(=O)c1cc(C2CCN(Cc3ccccc3)C2=O)c(C(=O)C(=[N+]=[N-])C(C)=O)[nH]1 (stereo not drawn)

result:
["16 µM", "> 100 µM", "> 100 µM", "> 100 µM", "> 100 µM", "> 100 µM"]

For the 5 compounds below, give their TGI values.
1. Cc1cc2c(cc1C)[n+](=O)c(N1CCN(c3ccc([N+](=O)[O-])cc3)CC1)c(C#N)n2[O-]
2. CCOC(=O)c1cc(C(=O)c2cc(OC)cc(OC)c2)n2ncc3ccccc3c12
3. COC(=O)C(Cc1ccccc1I)C1=CCC2(CC1)OCCO2 (stereo not drawn)
4. O=c1cc(-c2ccccc2)oc2ccc(Oc3nnnn3-c3ccccc3)cc12
5. CC(=O)OCC1OC(OC2=C(CC=C(Cl)Cl)C(=O)c3ccccc3C2=O)C(OC(C)=O)C(OC(C)=O)C1OC(C)=O (stereo not drawn)

result:
1. > 100 µM
2. > 100 µM
3. > 100 µM
4. > 100 µM
5. 21.3 µM
